Just for reference, patent EP4520771A2 is where these values come from.

- test.system: human epidermal growth factor receptor 2 (HER2) (human, UniProt P04626 23-1255)
- method: cell-based or functional assay
measured.attribute: % cells killed (maximal), AU565 cells, anti-kappa-ETA'-conjugated antibody

Inquiry: Entry HER2 antibody 084 (antibody, V domains shown) VH: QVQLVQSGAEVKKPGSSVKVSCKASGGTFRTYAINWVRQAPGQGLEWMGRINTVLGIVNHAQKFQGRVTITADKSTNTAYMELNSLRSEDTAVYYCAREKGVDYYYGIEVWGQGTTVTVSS VL: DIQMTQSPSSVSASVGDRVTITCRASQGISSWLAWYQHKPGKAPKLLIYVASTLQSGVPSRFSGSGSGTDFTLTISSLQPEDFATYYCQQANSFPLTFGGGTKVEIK : reported % cells killed (maximal), AU565 cells, anti-kappa-ETA'-conjugated antibody = ?
Reply text: 58.1%
